- Assay info: Oral bioavailability in dog at 10 mg/kg
- Format: ADME, organism-based, Canis lupus familiaris
- Condition set: in vivo
Value type: bioavailability (%)

1. Cc1c(-c2cn(C(C)C)c(=O)c3ccccc23)c2cc(F)ccc2n1CC(=O)O
2. Cc1c(Cc2ccc(=O)n(Cc3ccc(F)cc3F)n2)c2cc(F)ccc2n1CC(=O)O
Q: Of the two listed items, which has the higher bioavailability? First: 1 Second: 2 Lab note: record the label of whichever item you select.
A: 1
(1: 32%, 2: 8%)

====

- Test target: Prostaglandin D2 receptor 2 (Mus musculus, UniProt Q9Z2J6)
- Sequence (Q9Z2J6 whole entry): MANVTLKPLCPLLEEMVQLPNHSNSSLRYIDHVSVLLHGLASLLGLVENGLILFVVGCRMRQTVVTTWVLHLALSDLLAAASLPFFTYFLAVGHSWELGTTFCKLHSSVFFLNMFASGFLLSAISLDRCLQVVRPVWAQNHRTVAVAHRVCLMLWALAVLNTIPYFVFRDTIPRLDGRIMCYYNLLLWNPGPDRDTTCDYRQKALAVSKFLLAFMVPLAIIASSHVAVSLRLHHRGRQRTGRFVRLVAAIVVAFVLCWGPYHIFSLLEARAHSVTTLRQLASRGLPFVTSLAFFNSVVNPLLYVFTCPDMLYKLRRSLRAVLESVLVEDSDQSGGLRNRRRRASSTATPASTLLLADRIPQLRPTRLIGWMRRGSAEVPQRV
- Assay info: Inhibition of mouse CRTH2 receptor
Value type: IC50 (nM)
State just the number; it will be interpreted in nM.

Lab note: measured IC50 of Cc1c(-c2cn(C(C)C)c(=O)c3ccccc23)c2cc(F)ccc2n1CC(=O)O was 4

====

- Assay info: Half life in rat at 2 mg/kg, iv
- Type: ADME, organism-based
- Parameters: dose 2 mg/kg, route intravenous
- Condition set: in vivo
Value type: half-life (h)
State just the number; it will be interpreted in h.

Lab note: measured half-life of Cc1c(-c2cn(C(C)C)c(=O)c3ccccc23)c2cc(F)ccc2n1CC(=O)O was 2.7

====

- Assay info: Metabolic clearance in dog hepatocytes measured per 10^6 cells
- Type: ADME, cell-based, Canis lupus familiaris, Hepatocyte
- Condition set: read-out: CLH
Value type: hepatocyte CLint

Lab note: measured hepatocyte CLint of Cc1c(Cc2ccc(=O)n(Cc3ccc(F)cc3F)n2)c2cc(F)ccc2n1CC(=O)O was < 5 µL/min/1e6 cells

====

- Assay info: Volume of distribution at steady state in dog at 2 mg/kg, iv
- Assay type: ADME, organism-based, Canis lupus familiaris
- Parameters: dose 2 mg/kg, route intravenous
- Condition set: in vivo, read-out: Vdss
Value type: Vd (L/kg)

A. Cc1c(-c2cn(C(C)C)c(=O)c3ccccc23)c2cc(F)ccc2n1CC(=O)O
B. Cc1c(Cc2ccc(=O)n(Cc3ccc(F)cc3F)n2)c2cc(F)ccc2n1CC(=O)O
Q: Of the two listed items, which has the higher Vd? First: A Second: B Lab note: record the label of whichever item you select.
A: A

====

- Test target: UniProtKB P33261
- Sequence (P33261 whole entry): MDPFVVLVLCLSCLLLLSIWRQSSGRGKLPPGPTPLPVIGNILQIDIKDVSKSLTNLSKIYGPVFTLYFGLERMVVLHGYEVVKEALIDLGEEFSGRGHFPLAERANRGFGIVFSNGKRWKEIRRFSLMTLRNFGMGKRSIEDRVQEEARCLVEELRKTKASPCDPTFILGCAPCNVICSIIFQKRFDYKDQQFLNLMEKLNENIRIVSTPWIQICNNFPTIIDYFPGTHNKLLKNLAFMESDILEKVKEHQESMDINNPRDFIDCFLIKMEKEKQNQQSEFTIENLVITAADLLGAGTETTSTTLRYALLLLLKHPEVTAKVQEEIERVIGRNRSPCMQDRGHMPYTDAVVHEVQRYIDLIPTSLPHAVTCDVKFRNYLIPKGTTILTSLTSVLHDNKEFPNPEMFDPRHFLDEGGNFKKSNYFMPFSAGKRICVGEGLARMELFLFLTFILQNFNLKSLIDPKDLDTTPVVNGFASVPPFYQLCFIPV
pIC50: −log10 of the molar value.
Value type: pIC50

Form field, pIC50 with UniProtKB P33261, item Cc1c(-c2cn(C(C)C)c(=O)c3ccccc23)c2cc(F)ccc2n1CC(=O)O : < 4.00

====

- Species: Rattus norvegicus
- Assay info: Clearance in rat
- Condition set: in vivo
Value type: clearance (mL/min/kg)

1. Cc1c(-c2cn(CC(F)(F)F)c(=O)c3ccccc23)c2cc(F)ccc2n1CC(=O)O
2. Cc1c(-c2cn(CCCC(F)(F)F)c(=O)c3ccccc23)c2cc(F)ccc2n1CC(=O)O
Q: Of the two listed items, which has the higher clearance? First: 1 Second: 2 Lab note: record the label of whichever item you select.
A: 2

====

- Assay info: Clearance in rat at 2 mg/kg, iv
- Assay type: ADME, organism-based
- Set-up: dose 2 mg/kg, route intravenous
- Condition set: in vivo
Value type: clearance (mL/min/kg)
State just the number; it will be interpreted in mL/min/kg.

Lab note: measured clearance of Cc1c(-c2cn(C(C)C)c(=O)c3ccccc23)c2cc(F)ccc2n1CC(=O)O was 18

====

- Assay info: Volume of distribution at steady state in rat at 2 mg/kg, iv
- Type: ADME, organism-based
- Set-up: dose 2 mg/kg, route intravenous
- Condition set: in vivo, read-out: Vdss
Value type: Vd (L/kg)
State just the number; it will be interpreted in L/kg.

Lab note: measured Vd of Cc1c(-c2cn(C(C)C)c(=O)c3ccccc23)c2cc(F)ccc2n1CC(=O)O was 1.2

====

- Assay info: Oral bioavailability in rat at 10 mg/kg
- Type: ADME, organism-based
- Condition set: in vivo
Value type: bioavailability (%)

# Smi, bioavailability, %
measured = [
    ("Cc1c(Cc2ccc(=O)n(CC(F)(F)F)c2)c2cc(F)ccc2n1CC(=O)O", 20),
]

A. Cc1c(-c2cn(C(C)C)c(=O)c3ccccc23)c2cc(F)ccc2n1CC(=O)O
B. Cc1c(Cc2ccc(=O)n(Cc3ccc(F)cc3F)c2)c2cc(F)ccc2n1CC(=O)O
Q: Between A and B , which one shows the smaller bioavailability number? Lab note: record the label of whichever item you select.
A: B

====

- Assay info: Metabolic clearance in rat hepatocytes measured per 10^6 cells
- Assay type: ADME, cell-based, Hepatocyte
- Condition set: read-out: CLH
Value type: hepatocyte CLint

Lab note: measured hepatocyte CLint of Cc1c(Cc2ccc(=O)n(Cc3ccc(F)cc3F)n2)c2cc(F)ccc2n1CC(=O)O was < 5 µL/min/1e6 cells

====

- Assay info: Clearance in rat at 2 mg/kg, iv and 10 mg/kg, po
- Type: ADME, organism-based
- Condition set: in vivo
Value type: clearance (mL/min/kg)

1. Cc1c(-c2ccc(=O)n(Cc3ccccc3)c2)c2cc(F)ccc2n1CC(=O)O
2. Cc1c(Cc2ccc(=O)n(Cc3ccc(F)cc3F)c2)c2cc(F)ccc2n1CC(=O)O
3. Cc1c(Cc2ccc(=O)n(CC(F)(F)F)c2)c2cc(F)ccc2n1CC(=O)O
Q: Rank the listed molecules by clearance, largest first. API: response body holds the labels in the requested order.
A: 2, 1, 3
(2: 32 mL/min/kg, 1: 15 mL/min/kg, 3: 7 mL/min/kg)

====

- Assay info: Drug excretion in rat bile assessed as drug recovery at 5 mg/kg, iv measured after 24 hrs by LC-MS analysis
- Format: ADME, organism-based
- Set-up: dose 5 mg/kg, route intravenous
- Condition set: read-out: Drug recovery
Value type: dose excreted at 24 h (%)
State just the number; it will be interpreted in %.

Lab note: measured dose excreted at 24 h of Cc1c(Cc2ccc(=O)n(Cc3ccc(F)cc3F)n2)c2cc(F)ccc2n1CC(=O)O was 27

====

- Test target: Thromboxane A2 receptor (Homo sapiens)
- Sequence (P21731 whole entry): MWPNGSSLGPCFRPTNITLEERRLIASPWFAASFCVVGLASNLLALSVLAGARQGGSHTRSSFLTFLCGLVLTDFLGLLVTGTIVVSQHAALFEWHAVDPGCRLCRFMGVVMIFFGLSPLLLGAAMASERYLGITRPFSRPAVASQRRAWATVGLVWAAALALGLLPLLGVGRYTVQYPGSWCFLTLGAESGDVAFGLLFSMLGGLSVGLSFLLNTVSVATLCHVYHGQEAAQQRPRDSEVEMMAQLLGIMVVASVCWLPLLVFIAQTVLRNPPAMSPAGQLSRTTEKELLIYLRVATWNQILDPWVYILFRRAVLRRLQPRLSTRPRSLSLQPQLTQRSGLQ
Value type: IC50

Lab note: measured IC50 of Cc1c(-c2cn(C(C)C)c(=O)c3ccccc23)c2cc(F)ccc2n1CC(=O)O was > 1000 nM

====

- Assay info: Half life in dog at 2 mg/kg, iv
- Type: ADME, organism-based, Canis lupus familiaris
- Design: dose 2 mg/kg, route intravenous
- Condition set: in vivo
Value type: half-life (h)

I. Cc1c(Cc2ccc(=O)n(Cc3ccc(F)cc3F)n2)c2cc(F)ccc2n1CC(=O)O
II. Cc1c(-c2cn(C(C)C)c(=O)c3ccccc23)c2cc(F)ccc2n1CC(=O)O
Q: Of the two listed items, which has the higher half-life? First: I Second: II Lab note: record the label of whichever item you select.
A: II
(II: 3.4 h, I: 2.3 h)

====

- Assay info: Oral bioavailability in monkey at 10 mg/kg
- Type: ADME, organism-based, Macaca mulatta
- Condition set: rhesus monkey, in vivo
Value type: bioavailability (%)

P. Cc1c(-c2cn(C(C)C)c(=O)c3ccccc23)c2cc(F)ccc2n1CC(=O)O
Q. Cc1c(Cc2ccc(=O)n(Cc3ccc(F)cc3F)n2)c2cc(F)ccc2n1CC(=O)O
Q: Of the two listed items, which has the higher bioavailability? First: P Second: Q Lab note: record the label of whichever item you select.
A: P
(P: 69%, Q: 12%)

====

- Test target: Prostaglandin D2 receptor 2 (Homo sapiens)
- Sequence (Q9Y5Y4 whole entry): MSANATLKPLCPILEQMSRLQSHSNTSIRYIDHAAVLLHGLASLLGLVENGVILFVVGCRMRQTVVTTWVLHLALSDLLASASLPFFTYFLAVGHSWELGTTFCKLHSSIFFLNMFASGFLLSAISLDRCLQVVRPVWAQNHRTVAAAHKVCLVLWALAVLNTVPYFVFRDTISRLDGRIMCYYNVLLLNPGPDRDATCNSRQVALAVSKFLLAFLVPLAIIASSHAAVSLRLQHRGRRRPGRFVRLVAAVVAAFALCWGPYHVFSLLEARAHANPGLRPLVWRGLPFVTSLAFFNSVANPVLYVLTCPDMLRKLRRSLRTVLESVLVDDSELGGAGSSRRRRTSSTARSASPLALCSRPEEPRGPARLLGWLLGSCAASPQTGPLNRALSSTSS
- Assay info: Antagonist activity at human recombinant CRTh2 expressed in CHO-K1 cells by cAMP TR FRET assay
- Assay type: functional, cell-based
pIC50: −log10 of the molar value.
Value type: pIC50

# Smi, Value measured
data = [
    ("Cc1c(-c2ccc(=O)n(C(C)C)c2)c2cc(Cl)ccc2n1CC(=O)O", 6.71),
    ("Cc1c(-c2ccc(=O)n(C(C)C)c2)c2ccccc2n1CC(=O)O", 6.25),
]

I. Cc1c(-c2ccc(=O)n(Cc3cccc(F)c3F)c2)c2cc(F)ccc2n1CC(=O)O
II. Cc1c(Cc2ccc(=O)n(Cc3ccc(F)cc3)n2)c2cc(F)ccc2n1CC(=O)O
III. Cc1c(-c2ccc(=O)n(Cc3ccc(F)cc3F)c2)c2cc(F)ccc2n1CC(=O)O
Q: List these items ordered by pIC50, big to small. API: response body holds the labels in the requested order.
A: I, II, III
(I: 9.10, II: 8.22, III: 7.77)

I. Cc1c(-c2cn(C(C)C)c(=O)c3ccccc23)c2cc(F)ccc2n1CC(=O)O
II. Cc1ccc2c(c1)c(-c1ccc(=O)n(CC(F)(F)F)c1)c(C)n2CC(=O)O
III. Cc1c(-c2cn(Cc3ccccc3)c(=O)c3c2CCCC3)c2cc(F)ccc2n1CC(=O)O
IV. Cc1c(-c2ccc(OCCCC(F)(F)F)nc2)c2cc(F)ccc2n1CC(=O)O
Q: List these items ordered by pIC50, big to small. API: response body holds the labels in the requested order.
A: I, III, IV, II

Reference source: ChEMBL document CHEMBL3232705
